Reference source for all entries: patent US9981944B2

target: HIS-TGFβR1 T204D (Homo sapiens (Human), UniProt P36897, T204D); assay: HTRF probe displacement assay, HIS-TGFβR1 T204D; conditions: 1 nM HIS-TGFβR1 T204D, 1 hour at room temperature, read-out: TGFBR1T204D IC50
Sequence (P36897 34-503 T204D): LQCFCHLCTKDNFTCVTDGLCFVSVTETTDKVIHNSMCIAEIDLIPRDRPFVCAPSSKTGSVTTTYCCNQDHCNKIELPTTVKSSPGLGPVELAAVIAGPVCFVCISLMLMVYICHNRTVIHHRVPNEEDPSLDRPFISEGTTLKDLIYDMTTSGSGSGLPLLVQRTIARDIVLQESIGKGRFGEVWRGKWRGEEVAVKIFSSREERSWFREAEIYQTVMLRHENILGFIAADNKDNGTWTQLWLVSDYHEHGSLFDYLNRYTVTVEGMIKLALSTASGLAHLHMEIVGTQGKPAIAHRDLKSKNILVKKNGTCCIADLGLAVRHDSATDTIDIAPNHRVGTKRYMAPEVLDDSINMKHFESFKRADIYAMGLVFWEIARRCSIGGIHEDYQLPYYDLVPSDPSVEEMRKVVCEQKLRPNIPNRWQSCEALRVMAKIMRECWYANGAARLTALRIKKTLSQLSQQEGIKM
pIC50: −log10 of the molar value.
Rule: pIC50 under 8 gives false (0), otherwise true (1).

STRUCTURE AS SMILES	CAT
Cc1nc(-c2ncccc2-c2ccc3ncc(C#N)n3n2)ccc1F	false (0)
Cc1cccc(-c2nccc(CO)c2-c2ccc3ncc(C#N)n3c2)n1	false (0)
Cc1nc(-c2ncccc2-c2ccn3ncc(C(=O)NC4COC4)c3n2)ccc1F	false (0)

Below: the item to evaluate.
Textbook exercise: given the entry Cc1cccc(-c2nc(C(F)(F)F)ccc2-c2ccc3ncc(C#N)n3c2)n1 , state whether its pIC50 is greater than or equal to 8.
false (0)
